# System: FBXW7
# TEST_DETAILS: 3' UTR reporter interaction score (median-centred robust z-score of log2 firefly/Renilla activity); higher = less repression of the 3' UTR reporter
# ASSAY_CONTEXT: HEK293T; 48 h
Exercise: for every item that follows, state its recorded 3' UTR reporter interaction score.
Numbers only.

Solved cases below.
{"columns": ["RESIDUES", "3' UTR reporter interaction score"],
 "data": [
  ["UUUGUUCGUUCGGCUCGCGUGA", -0.0777],
  ["UCUUGUGUUCUCUAGAUCAGU", -0.787],
  ["UCCAGCAUCAGUGAUUUUGUUGA", -0.0681],
  ["UCUCUGGAGGGAAGCACUUUCUG", 0.444],
  ["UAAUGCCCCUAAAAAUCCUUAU", 1.16],
  ["AGACCAUGGGUUCUCAUUGU", -0.214],
  ["AUCAACAGACAUUAAUUGGGCGC", 1.67],
  ["UAGCAGCACAUCAUGGUUUACA", -2.93],
  ["AUGUAUAAAUGUAUACACAC", 0.329],
  ["ACAGCAGGCACAGACAGGCAG", -0.152]
]}

Batch of 5 sequences: report 3' UTR reporter interaction score for each.
1. UCACAGUGAACCGGUCUCUUUU
2. CAAAGCGCUUCUCUUUAGAGUG
3. UGAGAUGAAGCACUGUAGCUCA
4. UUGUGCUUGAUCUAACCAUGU
5. UAAGUGCUUCCAUGUUUUGGUGA

[-1.07, -1.3, 0.851, 0.164, 0.567]

---

# System: HRAS
# TEST_DETAILS: 3' UTR reporter interaction score (median-centred robust z-score of log2 firefly/Renilla activity); higher = less repression of the 3' UTR reporter
# ASSAY_CONTEXT: HEK293T; 48 h
Would you please tag the item condition met when its 3' UTR reporter interaction score is -0.2 or above, and condition not met when it is below?

Solved entries (count: 10):
{"columns": ["RESIDUES", "TESTED_ON", "CLASS_NAME"],
 "data": [
  ["UGGUGGGCCGCAGAACAUGUGC", "HRAS", "condition not met"],
  ["GUCCCUCUCCAAAUGUGUCUUG", "HRAS", "condition met"],
  ["GUCCAGUUUUCCCAGGAAUCCCUU", "HRAS", "condition not met"],
  ["UAAAGUGCUGACAGUGCAGAU", "HRAS", "condition met"],
  ["UCACAGUGAACCGGUCUCUUUC", "HRAS", "condition not met"],
  ["AAUAUUAUACAGUCAACCUCU", "HRAS", "condition not met"],
  ["UCCCACGUUGUGGCCCAGCAG", "HRAS", "condition not met"],
  ["UACUGCAUCAGGAACUGAUUGGAU", "HRAS", "condition met"],
  ["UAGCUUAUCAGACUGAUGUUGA", "HRAS", "condition met"],
  ["AGUGACAUCACAUAUACGGCAGC", "HRAS", "condition not met"]
]}

Does the reported 3' UTR reporter interaction score for CAUGCCUUGAGUGUAGGACCGU fall at or above the -0.2 mark?
condition not met

Lookup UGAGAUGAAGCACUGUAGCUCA
condition met

Lookup UAGGUAGUUUCCUGUUGUUGG
condition not met

Lookup CCUCUAGAUGGAAGCACUGUCU
condition met

Lookup UAUGGCUUUUCAUUCCUAUGUG
condition not met

Lookup GCCUGCUGGGGUGGAACCUGG
condition met

Lookup CUGUGCGUGUGACAGCGGCUGA
condition not met

Lookup AGUGGGGAACCCUUCCAUGAGGA
condition met

Lookup UAAAGCUAGAUAACCGAAAGU
condition met

Lookup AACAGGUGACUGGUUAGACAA
condition met

Lookup UGAGUUGGCCAUCUGAGUGAG
condition met

Lookup CGAAUGUUGCUCGGUGAACCCCU
condition met

Lookup GUCCGCUCGGCGGUGGCCCA
condition met

Lookup UAACAGUCUCCAGUCACGGCC
condition not met

Lookup ACUUUAACAUGGAAGUGCUUUCU
condition met

Lookup UUUUUGCGAUGUGUUCCUAAUA
condition met

Lookup AAGCAGCUGCCUCUGAGGC
condition not met

Lookup AGGUUGACAUACGUUUCCC
condition not met

Lookup GUGCCUACUGAGCUGAUAUCAGU
condition not met
